Biological target: T1, Human IL-23 (human, UniProt Q9NPF7 20-189; P29460 23-328)
T1 construct: Heterodimer of p40 and p19; For the crystal it was secreted from insect cells from a bi-cistronic construct; also called interleukin 23; human recombinant IL-23
T1 sequence (looked up) 1: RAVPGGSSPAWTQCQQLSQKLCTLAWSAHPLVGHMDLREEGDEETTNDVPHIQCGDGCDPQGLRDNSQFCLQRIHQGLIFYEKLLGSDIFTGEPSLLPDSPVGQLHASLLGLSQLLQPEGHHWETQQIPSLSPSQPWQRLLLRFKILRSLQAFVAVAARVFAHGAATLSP
T1 sequence (looked up) 2: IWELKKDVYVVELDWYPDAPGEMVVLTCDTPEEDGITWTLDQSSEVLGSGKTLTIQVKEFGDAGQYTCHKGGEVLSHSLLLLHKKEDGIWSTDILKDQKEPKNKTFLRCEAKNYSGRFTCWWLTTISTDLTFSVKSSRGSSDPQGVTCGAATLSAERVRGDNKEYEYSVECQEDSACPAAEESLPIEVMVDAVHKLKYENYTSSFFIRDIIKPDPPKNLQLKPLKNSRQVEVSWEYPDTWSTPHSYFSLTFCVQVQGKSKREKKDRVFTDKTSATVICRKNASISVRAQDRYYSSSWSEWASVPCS
Test: competitive ELISA: Adnectin pre-incubated with 1 nM IL-23, binding to coated IL-23R-Fc
Would you kindly list IC50 for each of these binders?
Numbers only, in nM.

Before answering, review these 3 worked examples.
# binder, IC50 [nM]
measured = [
    ("1454B08 Y81→A (designed binder, Point variant of 1454B08) MGVSDVPRDLEVVAATPTSLLISWEHDYPYRRYYRITYGETGGNSPVQEFTVPKDVDTATISGLKPGVDYTITVYAVTSSYKADMQYSPISINYRTEIDKPSQHHHHHH", 35),
    ("1454B08 V45→D (designed binder, Point variant of 1454B08) MGVSDVPRDLEVVAATPTSLLISWEHDYPYRRYYRITYGETGGNSPDQEFTVPKDVDTATISGLKPGVDYTITVYAVTSSYKYDMQYSPISINYRTEIDKPSQHHHHHH", 0.83),
    ("1454B08 Y73→Q (designed binder, Point variant of 1454B08; also called Tyr 73→Gln) MGVSDVPRDLEVVAATPTSLLISWEHDYPYRRYYRITYGETGGNSPVQEFTVPKDVDTATISGLKPGVDYTITVQAVTSSYKYDMQYSPISINYRTEIDKPSQHHHHHH", 0.26),
]

INPUT: Let me know recorded IC50 for 1454B08 V45→Q (designed binder, Point variant of 1454B08) MGVSDVPRDLEVVAATPTSLLISWEHDYPYRRYYRITYGETGGNSPQQEFTVPKDVDTATISGLKPGVDYTITVYAVTSSYKYDMQYSPISINYRTEIDKPSQHHHHHH , thanks.
OUTPUT: 0.34

// data source = patent US20130288372A1
